Would you kindly list Average survival times (Days) for each of these molecules?
System: Pseudomonas aeruginosa ATCC 27853
Test: Injectable formulations on mice infected with peritonitis
Format: in vivo, ICR mice
Settings: 1 mg/kg via tail vein, twice a day for 3 days, observed for 14 d, n = 10
Marks after values point to notes of the source that are not given here. Non-standard residues stand in square brackets, D forms with d. Residues, ends and D or L forms follow the SMILES beside them. dPhe(4-Me) = Cc1ccc(C[C@@H](N)C(=O)O)cc1; d2Nal = N[C@H](Cc1ccc2ccccc2c1)C(=O)O

What the record says about CC(=O)N[C@H](CCCNC(=N)N)C(=O)N[C@H](CCCCN)C(=O)N[C@H](CC(C)C)C(=O)N[C@H](CC(C)C)C(=O)N[C@H](Cc1ccccc1)C(=O)N[C@H](CCCNC(=N)N)C(=O)N[C@H](CC(C)C)C(=O)N[C@H](CCCCN)C(=O)N[C@H](Cc1ccc2ccccc2c1)C(=O)N[C@H](CCCNC(=N)N)C(=O)N[C@H](CCCCN)C(N)=O [LV-3] (Ac-[dR][dK][dL][dL][dF][dR][dL][dK][d2Nal][dR][dK]-NH2) : Average survival times (Days) is 8.6** Days

So, CC(=O)N[C@H](CCCNC(=N)N)C(=O)N[C@H](CCCCN)C(=O)N[C@H](CC(C)C)C(=O)N[C@H](CC(C)C)C(=O)N[C@H](Cc1ccc(C)cc1)C(=O)N[C@H](CCCCN)C(=O)N[C@H](CC(C)C)C(=O)N[C@H](CCCCN)C(=O)N[C@H](Cc1ccc(C)cc1)C(=O)N[C@H](CCCCN)C(=O)N[C@H](CCCNC(=N)N)C(N)=O [LV-11] (Ac-[dR][dK][dL][dL][dPhe(4-Me)][dK][dL][dK][dPhe(4-Me)][dK][dR]-NH2) ? Its Average survival times (Days) was 9.9**** Days

Record CC(=O)N[C@H](CCCCN)C(=O)N[C@H](CCCNC(=N)N)C(=O)N[C@H](CC(C)C)C(=O)N[C@H](CC(C)C)C(=O)N[C@H](Cc1ccc2ccccc2c1)C(=O)N[C@H](CCCCN)C(=O)N[C@H](CC(C)C)C(=O)N[C@H](CCCCN)C(=O)N[C@H](Cc1ccc2ccccc2c1)C(=O)N[C@H](CCCCN)C(=O)N[C@H](CCCNC(=N)N)C(N)=O [LV-23] (Ac-[dK][dR][dL][dL][d2Nal][dK][dL][dK][d2Nal][dK][dR]-NH2) , field Average survival times (Days): 9.5*** Days

---

Tested on: Escherichia coli ATCC 25922
Experiment: Oral formulations on mice with systemic bacterial infection
Type: in vivo, ICR mice
Settings: 1 mg/kg gavage, three times a day for 7 days, n = 10
Non-standard residues stand in square brackets, D forms with d. Residues, ends and D or L forms follow the SMILES beside them. d2Nal = N[C@H](Cc1ccc2ccccc2c1)C(=O)O
reported-metric: Number of mice that died on each day after infection: day 4 (Mouse)
Please respond with the number in Mouse and leave the unit unwritten.

Kindly note the recorded Number of mice that died on each day after infection: day 4 for CC(=O)N[C@H](CCCNC(=N)N)C(=O)N[C@H](CCCNC(=N)N)C(=O)N[C@H](CC(C)C)C(=O)N[C@H](CC(C)C)C(=O)N[C@H](Cc1ccc2ccccc2c1)C(=O)N[C@H](CCCNC(=N)N)C(=O)N[C@H](CC(C)C)C(=O)N[C@H](CCCCN)C(=O)N[C@H](Cc1ccc2ccccc2c1)C(=O)N[C@H](CCCNC(=N)N)C(=O)N[C@H](CCCCN)C(N)=O [LV-21] (Ac-[dR][dR][dL][dL][d2Nal][dR][dL][dK][d2Nal][dR][dK]-NH2) , which is 1

According to the records, this molecule CC(=O)N[C@H](CCCNC(=N)N)C(=O)N[C@H](CCCCN)C(=O)N[C@@H](C(=O)N[C@@H](C(=O)N[C@H](Cc1ccc2ccccc2c1)C(=O)N[C@H](CCCNC(=N)N)C(=O)N[C@@H](C(=O)N[C@H](CCCCN)C(=O)N[C@H](Cc1ccc2ccccc2c1)C(=O)N[C@H](CCCNC(=N)N)C(=O)N[C@H](CCCCN)C(N)=O)C(C)C)C(C)C)C(C)C [LV-16] (Ac-[dR][dK][dV][dV][d2Nal][dR][dV][dK][d2Nal][dR][dK]-NH2) displays Number of mice that died on each day after infection: day 4 of 1

Item: CC(=O)N[C@H](CCCNC(=N)N)C(=O)N[C@H](CCCCN)C(=O)N[C@H](C)C(=O)N[C@H](C)C(=O)N[C@H](Cc1ccc2ccccc2c1)C(=O)N[C@H](CCCNC(=N)N)C(=O)N[C@H](C)C(=O)N[C@H](CCCCN)C(=O)N[C@H](Cc1ccc2ccccc2c1)C(=O)N[C@H](CCCNC(=N)N)C(=O)N[C@H](CCCCN)C(N)=O [LV-15] (Ac-[dR][dK][dA][dA][d2Nal][dR][dA][dK][d2Nal][dR][dK]-NH2) | Number of mice that died on each day after infection: day 4: 1
